Answer each item with its documented pIC50.
- TARGET_UNDER_TEST: CDK2 (Homo sapiens, UniProt P24941)
- Construct: High-Throughput Measurement of Cellular Endogenous CDK2; endogenous in cells
- ASSAY: Inhibition of CDK2: phospho-Rb (S807/811) HTRF measurement in OVCAR3 cells, 24 h
- CONDITIONS: 24 h compound treatment, read-out: pRB_OVCAR3_24h
pIC50: −log10 of the molar value.

{"COMPOUND": "O=C1CCN(c2ccc(N3CCN(CC4CCN(c5cccc(S(=O)(=O)N6CCC(Nc7ncc(Cl)cn7)CC6)c5)CC4)CC3)cc2)C(=O)N1", "ASSAY_VALUE": "6.30 to 7.00"}
{"COMPOUND": "C[C@@H]1CN(CC2CCN(c3cccc(S(=O)(=O)N4CCC(Nc5ncc(Cl)cn5)CC4)c3)CC2)CCN1c1ccc2c(N3CCC(=O)NC3=O)nn(C)c2c1", "ASSAY_VALUE": "7.00 to 9.00"}

Would you mind giving pIC50 for every compound in the list below?
1. Cn1nc(N2CCC(=O)NC2=O)c2ccc(C3CCN(CC4CCN(c5cccc(S(=O)(=O)N6CCC(Nc7ncc(Cl)cn7)CC6)c5F)CC4)CC3)cc21
2. Cn1nc(N2CCC(=O)NC2=O)c2cc(F)c(N3CCN(CC4CCN(c5cccc(S(=O)(=O)N6CCC(Nc7ncc(C(F)(F)F)cn7)CC6)c5)CC4)CC3)cc21
3. Cn1nc(N2CCC(=O)NC2=O)c2ccc(C3CN(CC4CCN(c5cccc(S(=O)(=O)N6CCC(Nc7ncc(C(F)(F)F)cn7)CC6)c5)CC4)C3)cc21
4. N#Cc1ccc(S(=O)(=O)N2CCC(Nc3ncc(C(F)(F)F)cn3)CC2)cc1N1CCC(CN2CCC(c3cccc4c3oc(=O)n4C3CCC(=O)NC3=O)CC2)CC1 (stereo not drawn)

Result:
6.30 to 7.00
6.30 to 7.00
7.00 to 9.00
7.00 to 9.00

====

- TARGET_UNDER_TEST: CDK2 (Homo sapiens, UniProt P24941)
- Construct: High-Throughput Measurement of Cellular Endogenous CDK2; endogenous in cells
- ASSAY: Inhibition of CDK2: phospho-Rb (S807/811) HTRF measurement in OVCAR3 cells, 24 h
- CONDITIONS: 24 h compound treatment, read-out: pRB_OVCAR3_24h
QUANTITY_MEASURED: IC50

# annotated cases, reported IC50 shown
{"MOLECULE": "Cn1nc(N2CCC(=O)NC2=O)c2ccc(C3CCN(Cc4cccc(S(=O)(=O)N5CCC(Nc6ncc(C(C)(F)F)cn6)CC5)c4)CC3)cc21", "IC50": "> 2500 nM"}
{"MOLECULE": "CO[C@@H]1CN(S(=O)(=O)c2cccc(N3CCC(CN4CCC(c5ccc6c(N7CCC(=O)NC7=O)nn(C)c6c5)CC4)CC3)c2)CC[C@@H]1Nc1ncc(Cl)cn1", "IC50": "> 2500 nM"}
{"MOLECULE": "Cn1nc(N2CCC(=O)NC2=O)c2ccc(C3CCN(C[C@@H]4CCCN4c4cccc(S(=O)(=O)N5CCC(Nc6ncc(OC(F)F)cn6)CC5)c4)CC3)cc21", "IC50": "500 to 2500 nM"}

Would you mind giving IC50 for every molecule in the list below?
1. Cn1nc(N2CCC(=S)NC2=O)c2ccc(C3CCN(CC4CCN(c5cccc(S(=O)(=O)N6CCC(Nc7ncc(Cl)cn7)CC6)c5)CC4)CC3)cc21
2. Cn1nc(N2CCC(=O)NC2=O)c2ccc(C3CCN(Cc4cccc(S(=O)(=O)N5CCC(Nc6ncc(OC(F)F)cn6)CC5)c4)CC3(F)F)cc21 (stereo not drawn)
3. Cn1nc(N2CCC(=O)NC2=O)c2ccc(C3CCN(CC4CCN(S(=O)(=O)[C@H]5CC[C@H](Nc6ncc(C(F)(F)F)cn6)CC5)CC4)CC3)cc21

Result:
100 to 500 nM
100 to 500 nM
500 to 2500 nM

====

- TARGET_UNDER_TEST: CDK2 (Homo sapiens, UniProt P24941)
- Construct: High-Throughput Measurement of Cellular Endogenous CDK2; endogenous in cells; host or cells: OVCAR3
- ASSAY: High-throughput HTRF measurement of cellular endogenous CDK2 level (degradation, DC50/Dmax) in OVCAR3 cells, 6 h
- Assay type: cell-based
- CONDITIONS: 6 h compound treatment, HTRF total CDK2, read-out: DC50_OVCAR3_6h
QUANTITY_MEASURED: DC50

# annotated cases, reported DC50 shown
{"COMPOUND": "C[C@@H]1CN(CC2CCN(c3cccc(S(=O)(=O)N4CCC(Nc5ncc(Cl)cn5)CC4)c3)CC2)CCN1c1ccc2c(N3CCC(=O)NC3=O)nn(C)c2c1", "ASSAY_VALUE": "10 to 100 nM"}
{"COMPOUND": "O=C1CCC(N2Cc3cc(N4CCN(Cc5cccc(S(=O)(=O)N6CCC(Nc7ncc(OC(F)F)cn7)CC6)c5)CC4)c(F)cc3C2=O)C(=O)N1 (stereo not drawn) [Example 43]", "ASSAY_VALUE": "10 to 100 nM"}

Ask: State its DC50 for this compound: Cn1nc(N2CCC(=O)NC2=O)c2ccc(C3CCN(Cc4cccc(S(=O)(=O)N5CC[C@H](Nc6ncc(Cl)cn6)[C@H](F)C5)c4)CC3)cc21
Result: 10 to 100 nM

====

Answer each item with its documented IC50.
- TARGET_UNDER_TEST: CDK2 (Homo sapiens, UniProt P24941)
- Construct: High-Throughput Measurement of Cellular Endogenous CDK2; endogenous in cells
- ASSAY: Inhibition of CDK2: phospho-Rb (S807/811) HTRF measurement in OVCAR3 cells, 24 h
- CONDITIONS: 24 h compound treatment, read-out: pRB_OVCAR3_24h

{"MOLECULE": "O=C1CCC(Nc2ccc(N3CCN(CC4CCN(c5cccc(S(=O)(=O)N6CCC(Nc7ncc(C(F)(F)F)cn7)CC6)c5)CC4)CC3)cc2)C(=O)N1 (stereo not drawn)", "TARGET_UNDER_TEST": "CDK2 (Homo sapiens, UniProt P24941)", "IC50": "100 to 500 nM"}
{"MOLECULE": "Cn1nc(N2CCC(=O)NC2=O)c2ccc(CCCN3CCN(c4cccc(S(=O)(=O)N5CCC(Nc6ncc(C(F)(F)F)cn6)CC5)c4)CC3)cc21", "TARGET_UNDER_TEST": "CDK2 (Homo sapiens, UniProt P24941)", "IC50": "100 to 500 nM"}
{"MOLECULE": "O=C1CCN(c2cncc3c(C4CCN(CC5CCN(c6cccc(S(=O)(=O)N7CCC(Nc8ncc(Cl)cn8)CC7)c6)CC5)CC4)cccc23)C(=O)N1", "TARGET_UNDER_TEST": "CDK2 (Homo sapiens, UniProt P24941)", "IC50": "100 to 500 nM"}
{"MOLECULE": "Cn1nc(N2CCC(=O)NC2=O)c2ccc(N3CC4CC(C3)N4CC3CCN(c4cccc(S(=O)(=O)N5CCC(Nc6ncc(C(F)(F)F)cn6)CC5)c4)CC3)cc21", "TARGET_UNDER_TEST": "CDK2 (Homo sapiens, UniProt P24941)", "IC50": "500 to 2500 nM"}

Would you mind giving IC50 for every molecule in the list below?
1. Cn1nc(N2CCC(=O)NC2=O)c2ccc(C3CCN(Cc4cncc(S(=O)(=O)N5CCC(Nc6ncc(C(F)(F)F)cn6)CC5)c4)CC3)cc21
2. O=C1CCN(c2cccc(C3CCN(CC4CCN(c5cccc(S(=O)(=O)N6CCC(Nc7ncc(Cl)cn7)CC6)c5)CC4)CC3)c2)C(=O)N1

Result:
1: 1 to 100 nM; 2: 100 to 500 nM

====

Answer each item with its documented DC50.
- TARGET_UNDER_TEST: CDK2 (Homo sapiens)
- Construct: High-Throughput Measurement of Cellular Endogenous CDK2; endogenous in cells; host or cells: OVCAR3
- ASSAY: High-throughput HTRF measurement of cellular endogenous CDK2 level (degradation, DC50/Dmax) in OVCAR3 cells, 6 h
- Assay type: cell-based
- CONDITIONS: 6 h compound treatment, HTRF total CDK2, read-out: DC50_OVCAR3_6h

# annotated cases, reported DC50 shown
{"COMPOUND": "Cn1nc(N2CCC(=O)NC2=O)c2ccc(C3CCN(CCc4cccc(S(=O)(=O)N5CCC(Nc6ncc(C(F)(F)F)cn6)CC5)c4)CC3)cc21 [Example 6]", "DC50": "100 to 1000 nM"}
{"COMPOUND": "O=C1CCC(N2Cc3cc(N4CCN(Cc5cccc(S(=O)(=O)N6CCC(Nc7ncc(OC(F)F)cn7)CC6)c5)CC4)c(F)cc3C2=O)C(=O)N1 (stereo not drawn) [Example 74]", "DC50": "1 to 10 nM"}
{"COMPOUND": "Cn1c(=O)n(C2CCC(=O)NC2=O)c2cccc(N3CCN(CC4CCN(c5cc(S(=O)(=O)N6CCC(Nc7ncc(C(F)(F)F)cn7)CC6)ccc5C#N)CC4)CC3)c21 (stereo not drawn) [Example 217]", "DC50": "10 to 100 nM"}

Would you mind giving DC50 for every compound in the list below?
1. O=C1CCC(n2c(=O)oc3c(C4CCN(CC5CCN(c6cccc(S(=O)(=O)N7CCC(Nc8ncc(C(F)(F)F)cn8)CC7)c6)CC5)CC4)cccc32)C(=O)N1 (stereo not drawn) [Example 201]
2. Cn1nc(N2CCC(=O)NC2=O)c2ccc(C3CCN(CC(C)(C)Cc4cccc(S(=O)(=O)N5CCC(Nc6ncc(Cl)cn6)CC5)c4)CC3)cc21 [Example 54]
3. Cn1c(=O)n(C2CCC(=O)NC2=O)c2cccc(N3CCN(CC4CCN(c5cc(S(=O)(=O)N6CCC(Nc7ncc(Cl)cn7)CC6)ccc5C#N)CC4)CC3)c21 (stereo not drawn) [Example 203]

Result:
["1 to 10 nM", "1 to 10 nM", "1 to 10 nM"]

Provenance of the data: patent US20260167623A1
